# target: human TLR8 (Homo sapiens)
# Sequence (Q9NR97 27-1041): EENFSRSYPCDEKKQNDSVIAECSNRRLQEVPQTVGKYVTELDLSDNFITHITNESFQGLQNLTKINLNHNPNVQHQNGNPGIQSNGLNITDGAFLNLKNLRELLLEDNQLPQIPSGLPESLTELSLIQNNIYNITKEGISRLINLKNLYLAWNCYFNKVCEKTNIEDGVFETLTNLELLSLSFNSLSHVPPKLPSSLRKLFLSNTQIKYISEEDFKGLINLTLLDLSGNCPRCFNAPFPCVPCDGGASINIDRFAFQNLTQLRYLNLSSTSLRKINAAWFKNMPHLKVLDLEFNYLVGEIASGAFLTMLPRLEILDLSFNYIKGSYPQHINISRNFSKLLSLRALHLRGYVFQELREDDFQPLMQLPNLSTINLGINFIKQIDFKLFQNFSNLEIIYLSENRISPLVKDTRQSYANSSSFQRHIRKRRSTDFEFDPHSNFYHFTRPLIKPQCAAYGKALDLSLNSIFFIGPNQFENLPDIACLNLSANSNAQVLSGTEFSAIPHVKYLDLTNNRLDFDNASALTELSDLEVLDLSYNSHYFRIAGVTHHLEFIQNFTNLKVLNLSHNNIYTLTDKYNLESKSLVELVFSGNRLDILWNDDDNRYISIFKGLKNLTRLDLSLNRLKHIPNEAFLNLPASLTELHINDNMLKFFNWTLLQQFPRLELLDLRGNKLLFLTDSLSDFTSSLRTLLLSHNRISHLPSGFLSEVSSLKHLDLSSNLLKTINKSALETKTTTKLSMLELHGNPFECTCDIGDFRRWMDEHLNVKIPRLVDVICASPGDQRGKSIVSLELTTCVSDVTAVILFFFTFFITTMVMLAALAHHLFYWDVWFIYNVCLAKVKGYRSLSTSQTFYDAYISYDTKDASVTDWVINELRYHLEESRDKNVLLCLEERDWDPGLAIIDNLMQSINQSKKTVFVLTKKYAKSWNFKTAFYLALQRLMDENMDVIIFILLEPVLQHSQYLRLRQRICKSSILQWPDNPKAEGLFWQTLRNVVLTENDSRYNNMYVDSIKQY
# experimental-details: HEK293-Blue-hTLR-8 cells assay
# test-conditions: HEK293-Blue-hTLR8 cells, R848 stimulation, 20 hrs; read-out: HEK/hTLR8 IC50
readout-name: IC50
Write the figure, then the unit, nothing else.

1. Cc1cc(N2CC[C@H](c3ccc(N4CCOC[C@@H](N)C4)cn3)[C@@H](C)C2)c2cnn(C)c2n1 [Example 40]: 7 nM
2. Cc1cc(N2CCNCC2)cnc1C1CCN(c2ccnc3c2cnn3C)CC1 [Example 5]: 64 nM
3. Cc1cc(N2CCC(c3cnc(N4CCNCC4)cc3C)CC2)c2cnn(C)c2n1 [Example 8]: 8 nM

Look at each molecule and report its IC50.
1. Cc1cc(N2CCC(c3cnc(N4CCNCC4)cn3)CC2)c2cnn(C)c2n1 [Example 3]
2. Cc1cc(N2CCC(c3ncc(N4CCNCC4)nc3C)[C@H](C)C2)c2cnn(C)c2n1 (single isomer, unassigned) [Example 23]

Result:
50 nM
7 nM

Return reported IC50 values for all items listed beneath this line.
1. Cc1cc(N2CCNCC2)ncc1C1CCN(c2ccnc3c2cnn3C)CC1 [Example 6]
2. Cc1cc(N2CCC(c3cnc(N4CCNCC4)nc3C)CC2)c2cnn(C)c2n1 [Example 11]
3. Cc1cc(N2CCC(c3ncc(N4CCNCC4)nc3C)[C@H](C)C2)c2cnn(C)c2n1 (single isomer, unassigned) [Example 22]
4. Cc1cc(N2CC[C@H](c3ccc(N4CC(C)(N)C4)cn3)[C@@H](C)C2)c2cnn(C)c2n1 [Example 43]
5. Cc1cc(N2CCC(c3ncc(N4CC[C@@H](N)[C@@H](F)C4)cc3C)CC2)c2cnn(C)c2n1 [Example 15]
6. Cc1cc(N2CC[C@H](c3ccc(N4CC5(CNCCO5)C4)cn3)[C@@H](C)C2)c2cnn(C)c2n1 [Example 38]
7. CO[C@@H]1CN(c2cnc([C@@H]3CCN(c4cc(C)nc5c4cnn5C)C[C@H]3C)c(C)c2)C[C@H]1N [Example 26]

Result:
["37 nM", "42 nM", "6 nM", "6 nM", "47 nM", "11 nM", "14 nM"]

Would you mind giving IC50 for every molecule in the list below?
1. Cc1cc(N2CCC(c3ncc(N4CCNCC4)cc3C)[C@H](C)C2)c2cnn(C)c2n1 (single isomer, unassigned) [Example 25]
2. Cc1cc(N2CCC(c3ccc(N4CCNCC4)cc3)CC2)c2cnn(C)c2n1 [Example 1]
3. Cc1cc(N2CC[C@@H](c3ncc(N4CC(C)(N)C4)cc3C)[C@H](C)C2)c2cnn(C)c2n1 [Example 32]
4. COC[C@H]1CN(c2cnc(C3CCN(c4cc(C)nc5c4cnn5C)CC3)c(C)c2)CCN1 [Example 16]

Result:
1. 7 nM
2. 12 nM
3. 15 nM
4. 32 nM

###

# target: TLR9 (Homo sapiens, UniProt Q9NR96)
# Sequence (Q9NR96 26-1032): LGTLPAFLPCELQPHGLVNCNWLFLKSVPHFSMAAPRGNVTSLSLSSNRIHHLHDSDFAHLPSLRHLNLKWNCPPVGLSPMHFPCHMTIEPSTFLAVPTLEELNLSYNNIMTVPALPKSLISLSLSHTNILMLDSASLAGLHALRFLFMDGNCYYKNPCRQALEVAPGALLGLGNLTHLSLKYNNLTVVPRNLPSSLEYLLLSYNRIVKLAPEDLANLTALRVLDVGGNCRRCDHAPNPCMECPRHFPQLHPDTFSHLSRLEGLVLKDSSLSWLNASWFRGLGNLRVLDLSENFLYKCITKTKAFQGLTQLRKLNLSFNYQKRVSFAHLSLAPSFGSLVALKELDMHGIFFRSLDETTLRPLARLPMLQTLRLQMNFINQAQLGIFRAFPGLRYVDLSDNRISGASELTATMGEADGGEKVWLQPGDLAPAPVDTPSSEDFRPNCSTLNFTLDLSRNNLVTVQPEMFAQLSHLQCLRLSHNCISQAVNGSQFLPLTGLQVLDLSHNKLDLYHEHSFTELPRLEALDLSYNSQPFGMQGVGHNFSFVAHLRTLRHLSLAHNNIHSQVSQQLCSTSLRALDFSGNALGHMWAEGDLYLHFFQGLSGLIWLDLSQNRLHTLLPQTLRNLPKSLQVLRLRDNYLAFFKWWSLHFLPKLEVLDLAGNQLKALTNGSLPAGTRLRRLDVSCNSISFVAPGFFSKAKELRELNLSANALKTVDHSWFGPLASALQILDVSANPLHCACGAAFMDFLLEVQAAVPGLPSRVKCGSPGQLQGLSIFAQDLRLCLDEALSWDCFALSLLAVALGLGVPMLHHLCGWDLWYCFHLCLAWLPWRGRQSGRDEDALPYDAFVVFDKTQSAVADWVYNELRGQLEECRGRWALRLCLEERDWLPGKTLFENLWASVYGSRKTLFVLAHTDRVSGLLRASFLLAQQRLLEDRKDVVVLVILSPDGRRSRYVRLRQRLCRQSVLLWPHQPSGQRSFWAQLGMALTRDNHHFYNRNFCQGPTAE
# experimental-details: Human PBMC cell-based assay
# Set-up: These cells express TLR7, TLR8, or TLR9, and therefore are natural responders to respective ligand stimulation; endogenous in cells; host or cells: human PBMC from healthy donor whole blood
# test-conditions: CpG ODN 2216 at 1 μM, read-out: hPBMC/TLR9 IC50
readout-name: IC50
Answer shape: numeric part, then the unit.

Worked examples, 3 molecules total:
1) COc1cc(N2CCNCC2)cnc1C1CCN(c2cc(C)nc3c2cnn3C)CC1 [Example 14]: 340 nM
2) Cc1cc(N2CC[C@H](c3ccc(N4CCOC[C@@H](N)C4)cn3)[C@@H](C)C2)c2cnn(C)c2n1 [Example 40]: 540 nM
3) Cc1cc(N2CC[C@H](c3ccc(N4CCNCC4)cn3)[C@@H](C)C2)c2cnn(C)c2n1 [Example 35]: 870 nM

Now take the following molecule into account.
Task: Bench note: what IC50 did COC[C@H]1CN(c2cnc([C@@H]3CCN(c4cc(C)nc5c4cnn5C)C[C@H]3C)c(C)c2)CCN1 [Example 29] show?
Result: 710 nM

###

# target: human TLR7 (Homo sapiens)
# Construct: host or cells: HEK293 (HEK-Blue hTLR7)
# Sequence (Q9NYK1 27-1049): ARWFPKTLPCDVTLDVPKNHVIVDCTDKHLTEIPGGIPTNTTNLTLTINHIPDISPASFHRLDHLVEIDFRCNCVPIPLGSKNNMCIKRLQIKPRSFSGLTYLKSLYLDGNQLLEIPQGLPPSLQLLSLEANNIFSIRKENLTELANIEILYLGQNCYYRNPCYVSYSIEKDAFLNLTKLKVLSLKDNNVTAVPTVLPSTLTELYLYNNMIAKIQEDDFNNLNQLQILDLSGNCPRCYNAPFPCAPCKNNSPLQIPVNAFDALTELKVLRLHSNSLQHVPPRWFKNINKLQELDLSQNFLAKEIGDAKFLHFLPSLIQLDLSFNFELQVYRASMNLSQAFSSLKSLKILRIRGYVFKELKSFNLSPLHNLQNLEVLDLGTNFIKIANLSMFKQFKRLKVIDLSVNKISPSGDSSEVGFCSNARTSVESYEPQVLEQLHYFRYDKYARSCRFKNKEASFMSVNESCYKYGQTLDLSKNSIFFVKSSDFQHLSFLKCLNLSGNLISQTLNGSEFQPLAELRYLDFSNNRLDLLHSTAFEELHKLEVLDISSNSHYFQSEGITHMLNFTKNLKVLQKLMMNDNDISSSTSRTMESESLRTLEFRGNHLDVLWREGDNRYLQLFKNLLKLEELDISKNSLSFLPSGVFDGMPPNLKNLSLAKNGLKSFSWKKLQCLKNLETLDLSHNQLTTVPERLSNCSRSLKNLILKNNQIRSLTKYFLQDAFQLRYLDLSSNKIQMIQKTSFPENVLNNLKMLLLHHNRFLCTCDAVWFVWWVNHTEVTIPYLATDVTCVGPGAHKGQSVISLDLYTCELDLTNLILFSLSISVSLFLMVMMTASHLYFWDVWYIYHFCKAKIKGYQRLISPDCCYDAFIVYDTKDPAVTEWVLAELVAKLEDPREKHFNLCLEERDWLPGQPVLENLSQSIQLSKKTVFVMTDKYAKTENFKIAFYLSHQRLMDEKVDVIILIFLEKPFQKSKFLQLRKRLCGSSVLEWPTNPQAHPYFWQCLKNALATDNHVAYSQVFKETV
# experimental-details: HEK293-Blue-hTLR-7 cells assay
# Assay type: cell-based
# test-conditions: HEK293-Blue-hTLR7 cells, R848 stimulation, 20 hrs; read-out: HEK/hTLR7 IC50
What IC50 was measured for each of the following?
One number for each entry, in nM.

State recorded IC50 for all listed compounds.
1. Cc1cc(N2CCC(c3cnc(N4CCNCC4)nc3C)CC2)c2cnn(C)c2n1
2. Cc1cc(N2CCC(c3ncc(N4CCNCC4)cn3)CC2)c2cnn(C)c2n1
3. COc1cc(N2CCNCC2)cnc1C1CCN(c2cc(C)nc3c2cnn3C)CC1
4. COC[C@H]1CN(c2cnc([C@@H]3CCN(c4cc(C)nc5c4cnn5C)C[C@H]3C)c(C)c2)CCN1
5. Cc1cc(N2CCC(c3ncc(N4CCNCC4)cc3C)CC2)c2cnn(C)c2n1

Result:
1: 37; 2: 31; 3: 12; 4: 5; 5: 11

Report IC50 for each item below.
1. Cc1cc(N2CCC(c3ncc(N4CCNCC4)nc3C)[C@H](C)C2)c2cnn(C)c2n1 (single isomer, unassigned) [Example 22]
2. CO[C@@H]1CN(c2ccc([C@H]3CCN(c4cc(C)nc5c4cnn5C)C[C@@H]3C)nc2)C[C@H]1N
3. Cc1cc(N2CCC(c3cnc(N4CCNCC4)cc3C)[C@H](C)C2)c2cnn(C)c2n1 (single isomer, unassigned) [Example 21]
4. Cc1cc(N2CCC(c3ccc(N4CCNCC4)cn3)CC2)c2cnn(C)c2n1
5. Cc1cc(N2CCNCC2)cnc1C1CCN(c2ccnc3c2cnn3C)CC1
6. Cc1cc(N2CC[C@@H](c3ncc(N4CC[C@@H](N)[C@H](F)C4)cc3C)[C@H](C)C2)c2cnn(C)c2n1
7. CO[C@H]1CN(c2ccc([C@H]3CCN(c4cc(C)nc5c4cnn5C)C[C@@H]3C)nc2)CC[C@@H]1N
8. CCc1cc(N2CCNCC2)cnc1C1CCN(c2cc(C)nc3c2cnn3C)CC1

Result:
1. 49
2. 18
3. 16
4. 27
5. 8
6. 5
7. 12
8. 26

Each of the following entries comes with a recorded value; kindly state IC50 for each.
1. Cc1cc(N2CC[C@@H](c3ncc(N4CCOC[C@@H](N)C4)cc3C)[C@H](C)C2)c2cnn(C)c2n1
2. Cc1cc(N2CC[C@@H](c3ccc(N4CCNCC4)cn3)[C@H](C)C2)c2cnn(C)c2n1
3. Cc1cc(N2CCC(c3cc(C)c(N4CCNCC4)cn3)CC2)c2cnn(C)c2n1

Result:
1: 7; 2: 82; 3: 39
